Test system: A549
Assay: Cytotoxic activity against human A549 bulk cells incubated for 72 hrs by Cell-titer-Glo luminescence assay
Type: functional, cell-based
Conditions: A549, 72 h
MEASUREMENT_NAME: IC50 (µM)

{"RECORD_SMILES": "CCN(CC)CCNC(=O)c1c(C)[nH]c(/C=C2\\C(=O)Nc3c2cccc3-c2ccncc2)c1C", "OBS_VALUE": 6.85}
{"RECORD_SMILES": "CCN(CC)CCNC(=O)c1c(C)[nH]c(/C=C2\\C(=O)Nc3ccc(-c4ncccn4)cc32)c1C", "OBS_VALUE": 15.4}
{"RECORD_SMILES": "O=C1Nc2ccc(-c3csc(C4CCNCC4)n3)cc2/C1=C/c1cc2ccccc2[nH]1", "OBS_VALUE": 5.55}

---

Test system: A549
Test: Cytotoxic activity against human A549 bulk cells incubated for 72 hrs by Cell-titer-Glo luminescence assay
Type: functional, cell-based
Conditions: A549, 72 h
pIC50: −log10 of the molar value.
MEASUREMENT_NAME: pIC50

{"RECORD_SMILES": "CCN(CC)CCNC(=O)c1c(C)[nH]c(/C=C2\\C(=O)Nc3cc(-c4cnc5ccccc5c4)ccc32)c1C", "OBS_VALUE": 4.80}
{"RECORD_SMILES": "CCN(CC)CCNC(=O)c1c(C)[nH]c(/C=C2\\C(=O)Nc3ccc(-c4cncnc4)cc32)c1C", "OBS_VALUE": 5.13}
{"RECORD_SMILES": "CCN(CC)CCNC(=O)c1c(C)[nH]c(/C=C2\\C(=O)Nc3ccc(-c4nccc5ccccc45)cc32)c1C", "OBS_VALUE": 5.50}
{"RECORD_SMILES": "CCN(CC)CCNC(=O)c1c(C)[nH]c(/C=C2\\C(=O)Nc3ccc(-c4cccnc4)cc32)c1C", "OBS_VALUE": 6.08}
{"RECORD_SMILES": "CCN(CC)CCNC(=O)c1c(C)[nH]c(/C=C2\\C(=O)Nc3ccc(-c4ccncc4)cc32)c1C", "OBS_VALUE": 5.15}
{"RECORD_SMILES": "CCN(CC)CCNC(=O)c1c(C)[nH]c(/C=C2\\C(=O)Nc3ccc(-c4csc(-n5cccn5)n4)cc32)c1C", "OBS_VALUE": 5.43}
{"RECORD_SMILES": "CCN(CC)CCNC(=O)c1c(C)[nH]c(/C=C2\\C(=O)Nc3ccc(C4CCN(C5CCN(C(C)=O)CC5)CC4)cc32)c1C", "OBS_VALUE": 4.53}
{"RECORD_SMILES": "Cc1[nH]c(/C=C2\\C(=O)Nc3cccc(-c4ccc(-c5ccccc5)cc4)c32)c(C)c1C(=O)N1CCN(C)CC1", "OBS_VALUE": 4.67}
{"RECORD_SMILES": "Cc1cc(C)c(/C=C2\\C(=O)Nc3ccc(-c4nc5ccccc5s4)cc32)[nH]1", "OBS_VALUE": 4.79}
{"RECORD_SMILES": "CCN(CC)CCNC(=O)c1c(C)[nH]c(/C=C2\\C(=O)Nc3ccc(-c4cnsc4)cc32)c1C", "OBS_VALUE": 5.42}
{"RECORD_SMILES": "COc1ncc(-c2cccc3c2NC(=O)/C3=C\\c2[nH]c(C)cc2C)cn1", "OBS_VALUE": 4.75}
{"RECORD_SMILES": "CCN(CC)CCNC(=O)CCc1c(C)[nH]c(/C=C2\\C(=O)Nc3ccc(-c4csc(-c5ccncc5)n4)cc32)c1C", "OBS_VALUE": 5.00}
{"RECORD_SMILES": "CCN(CC)CCNC(=O)c1c(C)[nH]c(/C=C2\\C(=O)Nc3ccc(-c4cccc(OC)n4)cc32)c1C", "OBS_VALUE": 5.55}
{"RECORD_SMILES": "CCN(CC)CCNC(=O)c1c(C)[nH]c(/C=C2\\C(=O)Nc3ccc(-c4csc(-c5ccc(O)cc5)n4)cc32)c1C", "OBS_VALUE": 5.51}
{"RECORD_SMILES": "Cc1cc(C)c(/C=C2\\C(=O)Nc3ccc(-c4ccc(C=O)cc4)cc32)[nH]1", "OBS_VALUE": 4.53}
{"RECORD_SMILES": "O=C1Nc2ccc(-c3csc(-c4ccccc4)n3)cc2/C1=C/c1cnc[nH]1", "OBS_VALUE": 4.95}
{"RECORD_SMILES": "CCN(CC)CCNC(=O)c1cc(C)c(/C=C2\\C(=O)Nc3ccc(-c4csc(-c5ccccc5)n4)cc32)[nH]1", "OBS_VALUE": 5.40}
